CONDITION_DETAILS: in NMP, 288.15 K
PROPERTY_MEASURED: solubility (mole fraction)

Summary for this compound, `O=C(O)c1cccnc1Cl` : solubility (mole fraction) is 0.295

###

CONDITION_DETAILS: in water, 308.15 K
PROPERTY_MEASURED: solubility (mole fraction)
Give only the figure.

Summary for this compound, `O=C(O)c1cccnc1Cl` : solubility (mole fraction) is 0.000216

###

CONDITION_DETAILS: in 1,4-dioxane, 303.15 K
PROPERTY_MEASURED: solubility (mole fraction)
Give only the figure.

Summary for this compound, `O=C(O)c1cccnc1Cl` : solubility (mole fraction) is 0.0136

###

CONDITION_DETAILS: in isopropanol, 283.15 K
PROPERTY_MEASURED: solubility (mole fraction)

Summary for this molecule, `O=C(O)c1cccnc1Cl` : solubility (mole fraction) is 0.00574

###

CONDITION_DETAILS: in acetone, 303.15 K
PROPERTY_MEASURED: solubility (mole fraction)
Give only the figure.

Summary for this compound, `O=C(O)c1cccnc1Cl` : solubility (mole fraction) is 0.0184

###

CONDITION_DETAILS: in ethyl acetate, 313.15 K
PROPERTY_MEASURED: solubility (mole fraction)
Give only the figure.

Summary for this compound, `O=C(O)c1cccnc1Cl` : solubility (mole fraction) is 0.0382

###

CONDITION_DETAILS: in 1,4-dioxane, 288.15 K
PROPERTY_MEASURED: solubility (mole fraction)

Summary for this compound, `O=C(O)c1cccnc1Cl` : solubility (mole fraction) is 0.0088

###

CONDITION_DETAILS: in acetone, 313.15 K
PROPERTY_MEASURED: solubility (mole fraction)
Give only the figure.

Summary for this compound, `O=C(O)c1cccnc1Cl` : solubility (mole fraction) is 0.0226

###

CONDITION_DETAILS: in n-propanol, 313.15 K
PROPERTY_MEASURED: solubility (mole fraction)
Give only the figure.

Summary for this molecule, `O=C(O)c1cccnc1Cl` : solubility (mole fraction) is 0.0162

###

CONDITION_DETAILS: in n-propanol, 293.15 K
PROPERTY_MEASURED: solubility (mole fraction)

Summary for this molecule, `O=C(O)c1cccnc1Cl` : solubility (mole fraction) is 0.00933

###

CONDITION_DETAILS: in isopropanol, 293.15 K
PROPERTY_MEASURED: solubility (mole fraction)
Give only the figure.

Summary for this compound, `O=C(O)c1cccnc1Cl` : solubility (mole fraction) is 0.0083

###

CONDITION_DETAILS: in acetonitrile, 298.15 K
PROPERTY_MEASURED: solubility (mole fraction)
Give only the figure.

Summary for this compound, `O=C(O)c1cccnc1Cl` : solubility (mole fraction) is 0.00324

###

CONDITION_DETAILS: in ethanol, 278.15 K
PROPERTY_MEASURED: solubility (mole fraction)

Summary for this molecule, `O=C(O)c1cccnc1Cl` : solubility (mole fraction) is 0.00363

###

CONDITION_DETAILS: in isopropanol, 288.15 K
PROPERTY_MEASURED: solubility (mole fraction)
Give only the figure.

Summary for this compound, `O=C(O)c1cccnc1Cl` : solubility (mole fraction) is 0.00697

###

CONDITION_DETAILS: in NMP, 308.15 K
PROPERTY_MEASURED: solubility (mole fraction)
Give only the figure.

Summary for this compound, `O=C(O)c1cccnc1Cl` : solubility (mole fraction) is 0.437
